- EXPERIMENTAL_TARGET: NaV1.5 (Homo sapiens (Human), UniProt Q14524)
- Sequence (Q14524 other isoform, or with tags, fused parts or gaps): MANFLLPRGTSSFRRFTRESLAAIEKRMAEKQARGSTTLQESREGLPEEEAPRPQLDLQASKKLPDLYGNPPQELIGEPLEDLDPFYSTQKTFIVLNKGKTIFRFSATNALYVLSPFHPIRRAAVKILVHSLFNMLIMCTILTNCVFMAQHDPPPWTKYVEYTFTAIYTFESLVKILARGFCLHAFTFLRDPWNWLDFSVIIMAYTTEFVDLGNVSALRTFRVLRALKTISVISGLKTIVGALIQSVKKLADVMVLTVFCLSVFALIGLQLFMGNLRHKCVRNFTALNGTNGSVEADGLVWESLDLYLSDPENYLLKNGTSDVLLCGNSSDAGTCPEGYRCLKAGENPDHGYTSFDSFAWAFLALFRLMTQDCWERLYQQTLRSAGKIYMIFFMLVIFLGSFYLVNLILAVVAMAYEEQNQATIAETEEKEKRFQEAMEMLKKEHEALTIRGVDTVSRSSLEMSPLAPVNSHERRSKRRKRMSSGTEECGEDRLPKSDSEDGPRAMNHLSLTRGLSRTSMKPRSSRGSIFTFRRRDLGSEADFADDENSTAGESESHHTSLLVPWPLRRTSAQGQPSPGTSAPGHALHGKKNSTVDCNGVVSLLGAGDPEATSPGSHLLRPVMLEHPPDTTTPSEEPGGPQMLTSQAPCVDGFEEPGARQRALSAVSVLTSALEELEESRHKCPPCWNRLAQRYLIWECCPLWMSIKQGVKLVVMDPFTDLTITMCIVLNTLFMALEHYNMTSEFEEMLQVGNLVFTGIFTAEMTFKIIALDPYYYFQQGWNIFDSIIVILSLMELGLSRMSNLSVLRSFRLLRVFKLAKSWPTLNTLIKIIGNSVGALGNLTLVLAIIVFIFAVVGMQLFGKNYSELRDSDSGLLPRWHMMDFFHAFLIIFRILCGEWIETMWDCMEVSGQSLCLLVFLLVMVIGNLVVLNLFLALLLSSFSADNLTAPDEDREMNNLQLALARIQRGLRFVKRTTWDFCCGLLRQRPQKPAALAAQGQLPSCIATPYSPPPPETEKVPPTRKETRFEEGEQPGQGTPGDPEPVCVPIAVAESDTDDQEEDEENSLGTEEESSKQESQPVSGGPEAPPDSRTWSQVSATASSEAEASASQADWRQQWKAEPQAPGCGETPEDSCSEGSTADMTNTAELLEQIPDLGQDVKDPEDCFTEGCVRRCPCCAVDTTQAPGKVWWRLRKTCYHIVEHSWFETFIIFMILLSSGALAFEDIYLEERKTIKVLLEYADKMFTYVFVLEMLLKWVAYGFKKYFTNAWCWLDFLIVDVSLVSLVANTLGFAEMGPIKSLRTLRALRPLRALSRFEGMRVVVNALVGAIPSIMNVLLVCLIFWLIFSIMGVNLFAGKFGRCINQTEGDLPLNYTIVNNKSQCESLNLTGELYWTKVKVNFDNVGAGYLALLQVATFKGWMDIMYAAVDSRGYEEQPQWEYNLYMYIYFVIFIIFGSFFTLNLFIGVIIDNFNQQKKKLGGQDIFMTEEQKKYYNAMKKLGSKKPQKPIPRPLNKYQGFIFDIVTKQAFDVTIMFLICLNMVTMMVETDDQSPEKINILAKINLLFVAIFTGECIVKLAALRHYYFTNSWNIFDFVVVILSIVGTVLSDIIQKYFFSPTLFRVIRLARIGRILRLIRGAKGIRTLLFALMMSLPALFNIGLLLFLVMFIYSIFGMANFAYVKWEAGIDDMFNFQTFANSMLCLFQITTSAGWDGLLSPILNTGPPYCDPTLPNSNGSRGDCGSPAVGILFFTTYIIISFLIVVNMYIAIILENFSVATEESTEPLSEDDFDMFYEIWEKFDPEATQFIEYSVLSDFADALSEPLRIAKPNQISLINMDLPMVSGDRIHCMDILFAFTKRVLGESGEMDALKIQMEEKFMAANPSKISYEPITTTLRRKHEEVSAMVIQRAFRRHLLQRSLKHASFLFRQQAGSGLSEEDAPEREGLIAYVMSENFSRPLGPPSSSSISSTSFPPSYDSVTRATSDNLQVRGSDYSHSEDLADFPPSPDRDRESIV
- ASSAY_METHOD_TEXT: Sodium Influx Assay (Flux), NaV1.5
- CONDITION_LABEL: read-out: Flux NaV1.5 IC50; Trex HEK293 cells, ANG2 dye, inactivated state
Where a name gives a salt, the structure may show the parent alone.
# strict inequality: IC50 < 20 µM yields YES, everything else yields NO

Check out these entries, answers already filled in.
                                   compound                       experimental_target  group_label
0  O=S(=O)(Nc1ccon1)c1c(F)cc(NCc2ccccc2CN2CCC2)cc1F  NaV1.5 (Homo sapiens (Human), UniProt Q14524)           NO
1  O=S(=O)(Nc1nccs1)c1ccc(N[C@H]2CCCc3cccnc32)c(Cl)c1  NaV1.5 (Homo sapiens (Human), UniProt Q14524)           NO
2  O=S(=O)(Nc1cscn1)c1ccc(NCc2c(F)cccc2CN2CCC2)c(Cl)c1F [Example 192, formate]  NaV1.5 (Homo sapiens (Human), UniProt Q14524)          YES
3  O=S(=O)(Nc1ccncn1)c1cc(Cl)c(NC2(c3cc(F)ccc3F)CC2)cc1F  NaV1.5 (Homo sapiens (Human), UniProt Q14524)           NO
4  CCC(Nc1cc(F)c(S(=O)(=O)Nc2nccs2)cc1Cl)c1ccc2c(c1)CCCC2 (centres unmarked)  NaV1.5 (Homo sapiens (Human), UniProt Q14524)           NO

Exam item: Does O=S(=O)(Nc1nccs1)c1cc(Cl)c(NCc2cccc3ccncc23)cc1F have IC50 strictly under 20 µM?
Marked response: YES

Exam item: Does O=S(=O)(Nc1cscn1)c1c(F)cc(NCc2c(F)cccc2CN2CCC2)c(Cl)c1F [Example 303, 2,2,2-trifluoroacetate] have IC50 strictly under 20 µM?
Marked response: NO

Exam item: Does CC(C)N(C)Cc1cccc(F)c1CNc1cc(F)c(S(=O)(=O)Nc2ccon2)c(F)c1 [Example 201, 2,2,2-trifluoroacetate] have IC50 strictly under 20 µM?
Marked response: NO
